Target: T1, cynomolgus Nectin-4 on transfected HEK-293 cells (cynomolgus, UniProt A0A2K5WES1 32-510)
T1 construct: whole, on cells; also called HEK-293 cells transfected with cynomolgus Nectin-4
T1 sequence: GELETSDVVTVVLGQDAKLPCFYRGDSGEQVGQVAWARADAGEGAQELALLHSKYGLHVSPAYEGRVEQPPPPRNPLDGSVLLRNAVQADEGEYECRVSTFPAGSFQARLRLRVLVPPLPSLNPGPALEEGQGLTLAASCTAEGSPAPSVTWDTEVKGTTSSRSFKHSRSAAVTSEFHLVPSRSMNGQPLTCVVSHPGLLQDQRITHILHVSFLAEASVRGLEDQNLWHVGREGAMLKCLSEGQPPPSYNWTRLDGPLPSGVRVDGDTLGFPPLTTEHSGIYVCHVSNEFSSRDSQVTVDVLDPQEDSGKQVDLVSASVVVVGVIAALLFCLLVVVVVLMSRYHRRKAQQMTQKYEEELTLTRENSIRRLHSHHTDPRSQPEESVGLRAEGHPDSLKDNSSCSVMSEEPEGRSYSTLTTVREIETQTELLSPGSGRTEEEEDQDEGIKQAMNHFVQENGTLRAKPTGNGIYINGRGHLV
Assay summary: flow cytometry on HEK-293 cells transfected with cynomolgus Nectin-4, anti-huIgG1-PE secondary, MFI (Geo Mean)
Assignment: determine reported EC50 for the given binders.
The reply should contain only the number, in µg/mL.

In plain terms, humanized D6C mAb with hzD6.1C VL (I2V), human IgG1 / human kappa (antibody, V domains shown, also called hzD6.IC) VH: EVQLVESGGGLVQPGGSLRLSCAASGFTFSNYDMSWVRQAPGKGLEWVATISSGGSYTYYVDSVKGRFTISRDNAKNSLYLQMNSLRAEDTAVYYCARQELGSYYAMDYWGQGTTVTVSS VL: DVVMTQTPLSLPVTPGEPASISCRSSQSIVHSNGNTYLEWYLQKPGQSPQLLIYKVSNRFSGVPDRFSGSGSGTDFTLKISRVEAEDVGVYYCFQGSHVPYTFGGGTKVEIKR has a documented EC50 of 0.016

Reported EC50 for D6C IgG1-Compound 2.14 (parental antibody TLR8 agonist conjugate) (antibody, V domains shown, IgG1) VH: EVMLVESGGALVKPGGSLKLSCVASGFTFSNYDMSWVRQTPEKRLEWVATISSGGSYTYYVDSVKGRFTISRDNARNTLHLQMSSLRSKDTAMYYCARQELGSYYAMDYWGQGTSVTVSS VL: DVVMTQTPLSLPVSLGDQASISCRSSQSIVHSNGNTYLEWYLQKPGQSPKLLIYKVSNRFSGVPDRFSGSGSGTDFTLKISRVEAEDLGVYYCFQGSHVPYTFGGGTKLEIK was 0.019
